Source of measurements: paper PMC9854762

tested on: A. baumannii DH-243; assay: Broth microdilution MIC/MBC; type: cell-based, Acinetobacter baumannii; settings: value in brackets
ASSAY_READOUT: MBC/MIC

For the molecule shown here, CCOC(=O)c1ccc(N=Nc2c(N)n[nH]c2N)cc1 , give the reported MBC/MIC.
0.5

Name the recorded MBC/MIC for CCOC(=O)c1ccc(N=Nc2c(N)nn3c(-c4cccs4)cc(-c4ccccc4)nc23)cc1 .
2

Which MBC/MIC value is on record for CCOC(=O)c1ccc(N=Nc2c(N)nn3c(O)c(C#N)c(-c4ccc(N(C)C)cc4)nc23)cc1 [Compound 10a] ?
0.5

# query: MBC/MIC of entry CCOC(=O)c1ccc(N=Nc2c(N)nn3c(O)c(C#N)c(-c4ccc(Cl)cc4)nc23)cc1 [Compound 10b]
1

So what's the measured MBC/MIC for this one? CCOC(=O)c1ccc(N=Nc2c(N)nn(C(N)=S)c2N)cc1
1

I am curious: what MBC/MIC value has been reported for CCOC(=O)c1ccc(N=Nc2c(N)nn3c(N)c(C#N)c(-c4ccc(OC)cc4)nc23)cc1 ?
1

Quick check: MBC/MIC of CCOC(=O)c1ccc(N=Nc2c(N=Cc3ccc(OC)cc3)n[nH]c2N)cc1 ?
0.5

Please report the recorded MBC/MIC for CCOC(=O)c1ccc(N=Nc2c(N)nn3c(-c4ccc(Cl)cc4)cc(-c4ccccc4)nc23)cc1 .
2

Suppose we examine the molecule CCOC(=O)c1ccc(N=Nc2c(N)nn(-c3ccccc3)c2N)cc1 ; what MBC/MIC value has been reported?
0.5

Recorded MBC/MIC for CCOC(=O)c1ccc(N=Nc2c(N)nn3c(N)c(C#N)c(-c4ccc(Cl)cc4)nc23)cc1 , please?
1
